test system: Thyroid hormone receptor alpha (Homo sapiens)
Sequence (P10827 whole entry): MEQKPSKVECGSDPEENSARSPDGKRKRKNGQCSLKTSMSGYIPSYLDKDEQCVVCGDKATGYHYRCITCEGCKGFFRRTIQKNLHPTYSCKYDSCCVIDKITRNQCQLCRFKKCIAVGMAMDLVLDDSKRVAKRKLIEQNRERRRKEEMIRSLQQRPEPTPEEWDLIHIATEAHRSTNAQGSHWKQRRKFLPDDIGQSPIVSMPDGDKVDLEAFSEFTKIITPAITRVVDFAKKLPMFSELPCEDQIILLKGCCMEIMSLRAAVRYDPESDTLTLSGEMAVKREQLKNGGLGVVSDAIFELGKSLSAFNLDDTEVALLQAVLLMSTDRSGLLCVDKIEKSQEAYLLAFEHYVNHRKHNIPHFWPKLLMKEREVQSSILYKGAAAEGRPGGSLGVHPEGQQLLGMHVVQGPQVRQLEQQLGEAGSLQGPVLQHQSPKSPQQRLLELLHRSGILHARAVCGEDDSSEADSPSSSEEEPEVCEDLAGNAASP
assay summary: Agonist activity at THRalpha (unknown origin) incubated for 14 to 16 hrs by dual glo luciferase reporter gene assay
property name: pEC50
The read-out pEC50 is expressed as -log10 of concentration in moles per litre.

Report pEC50 from Thyroid hormone receptor alpha (Homo sapiens) testing of O=C(O)Cc1cc(I)c(Oc2cc(I)c(O)c(I)c2)c(I)c1 [TETRAC]
7.70

###

test system: UniProtKB P10828
Sequence (P10828 whole entry): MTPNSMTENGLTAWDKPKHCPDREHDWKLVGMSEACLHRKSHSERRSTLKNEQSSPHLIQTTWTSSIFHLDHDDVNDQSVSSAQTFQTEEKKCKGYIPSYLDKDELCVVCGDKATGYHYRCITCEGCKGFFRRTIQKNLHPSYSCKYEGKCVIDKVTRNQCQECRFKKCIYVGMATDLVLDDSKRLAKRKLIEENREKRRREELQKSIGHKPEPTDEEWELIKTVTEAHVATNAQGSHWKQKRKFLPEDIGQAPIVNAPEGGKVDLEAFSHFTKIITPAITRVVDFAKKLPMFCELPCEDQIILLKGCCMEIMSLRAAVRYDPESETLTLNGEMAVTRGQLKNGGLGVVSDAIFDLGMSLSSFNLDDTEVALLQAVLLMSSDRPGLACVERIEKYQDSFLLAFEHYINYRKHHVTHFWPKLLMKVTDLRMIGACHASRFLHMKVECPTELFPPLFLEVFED
assay summary: Agonist activity at THRbeta (unknown origin) incubated for 14 to 16 hrs by dual glo luciferase reporter gene assay
property name: EC50 (nM)
Give a bare numeral; the unit nM is implied.

Please look at this molecule and report its EC50: O=C(O)Cc1cc(I)c(Oc2cc(I)c(O)c(I)c2)c(I)c1
20

###

assay summary: Half life in RjOrl:Swiss CD-1 mouse at 10 mg/kg, po administered as single dose measured after 1 to 24 hrs by LC-MS analysis
Format: ADME, organism-based
condition context: in vivo
property name: half-life (h)
Give a bare numeral; the unit h is implied.

Please look at this compound and report its half-life: O=C(O)Cc1cc(Br)c(Oc2cc(I)c(O)c(I)c2)c(I)c1
19.4

Please look at this compound and report its half-life: N[C@@H](Cc1cc(Br)c(Oc2cc(I)c(O)c(I)c2)c(I)c1)C(=O)O
8.7

###

test system: Retinoic acid receptor RXR-alpha (Homo sapiens)
assay summary: Agonist activity at GFP RXRalpha LBD (unknown origin) assessed as biotin-labeled SRC-1 recruitment incubated for 2 hrs by HT-FRET assay
property name: EC50 (µM)
Give a bare numeral; the unit µM is implied.

Please look at this molecule and report its EC50: O=C(O)Cc1cc(I)c(Oc2cc(I)c(O)c(I)c2)c(I)c1 [TETRAC]
4.6

###

test system: UniProtKB P19793
assay summary: Agonist activity at recombinant human pFA-CMV fused RXRalpha LBD expressed in HEK293T cells transfected with pFR-luciferase plasmid and pRL-SV40 plasmid incubated for 14 to 16 hrs by dual glo luciferase reporter gene assay
Format: cell-based, HEK-293T
condition context: read-out: EC50
Exercise: for every item that follows, state its recorded EC50.
Give a bare numeral; the unit µM is implied.

Report EC50 from UniProtKB P19793 testing of O=C(O)Cc1cc(I)c(Oc2cc(I)c(O)c(I)c2)c(I)c1
1.32

Report EC50 from UniProtKB P19793 testing of N[C@@H](Cc1cc(I)c(Oc2cc(I)c(O)c(I)c2)c(I)c1)C(=O)O
15.4

###

assay summary: Plasma concentration in RjOrl:Swiss CD-1 mouse at 10 mg/kg, po administered as single dose measured after 4 to 24 hrs by LC-MS analysis
Type: ADME, organism-based
condition context: in vivo
property name: concentration (nM)
Give a bare numeral; the unit nM is implied.

Please look at this molecule and report its concentration: N[C@@H](Cc1cc(Br)c(Oc2cc(I)c(O)c(I)c2)c(I)c1)C(=O)O
40

Please look at this molecule and report its concentration: O=C(O)Cc1cc(Br)c(Oc2cc(I)c(O)c(I)c2)c(I)c1
40

###

assay summary: Drug level in human serum by RIA
Assay type: ADME, cell-free
condition context: read-out: Drug uptake
property name: concentration (nM)
Give a bare numeral; the unit nM is implied.

Please look at this compound and report its concentration: O=C(O)Cc1cc(I)c(Oc2cc(I)c(O)c(I)c2)c(I)c1
1.6

###

test system: Peroxisome proliferator-activated receptor gamma (Homo sapiens, UniProt P37231)
Sequence (P37231 whole entry, the tested form may be a part): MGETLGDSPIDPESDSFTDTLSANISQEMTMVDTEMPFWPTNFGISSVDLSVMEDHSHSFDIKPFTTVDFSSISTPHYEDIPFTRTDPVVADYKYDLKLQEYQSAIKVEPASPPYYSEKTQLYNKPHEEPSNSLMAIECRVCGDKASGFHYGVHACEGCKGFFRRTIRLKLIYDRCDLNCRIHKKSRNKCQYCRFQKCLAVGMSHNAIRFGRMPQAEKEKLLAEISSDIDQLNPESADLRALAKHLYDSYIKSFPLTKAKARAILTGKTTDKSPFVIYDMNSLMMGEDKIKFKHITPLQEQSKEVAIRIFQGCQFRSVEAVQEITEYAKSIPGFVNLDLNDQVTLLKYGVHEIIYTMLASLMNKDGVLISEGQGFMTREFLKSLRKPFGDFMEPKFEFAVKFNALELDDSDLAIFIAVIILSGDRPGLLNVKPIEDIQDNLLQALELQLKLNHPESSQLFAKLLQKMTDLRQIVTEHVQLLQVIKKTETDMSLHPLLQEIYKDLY
assay summary: Agonist activity at recombinant human pFA-CMV fused PPARgamma expressed in HEK293T cells transfected with pFR-luciferase plasmid and pRL-SV40 plasmid incubated for 14 to 16 hrs by dual glo luciferase reporter gene assay
property name: pEC50
The read-out pEC50 is expressed as -log10 of concentration in moles per litre.

Please look at this compound and report its pEC50: N[C@@H](Cc1cc(Br)c(Oc2cc(I)c(O)c(I)c2)c(I)c1)C(=O)O
4.89

Please look at this compound and report its pEC50: O=C(O)Cc1cc(I)c(Oc2cc(I)c(O)c(I)c2)c(I)c1
7.00

Please look at this compound and report its pEC50: N[C@@H](Cc1cc(I)c(Oc2ccc(O)c(I)c2)c(I)c1)C(=O)O
5.24

Please look at this compound and report its pEC50: N[C@@H](Cc1cc(I)c(Oc2cc(I)c(O)c(I)c2)c(I)c1)C(=O)O
4.92

Please look at this compound and report its pEC50: N[C@@H](Cc1ccc(Oc2cc(I)c(O)c(I)c2)c(I)c1)C(=O)O
5.42

###

test system: Peroxisome proliferator-activated receptor gamma (Homo sapiens, UniProt P37231)
assay summary: Binding affinity to recombinant PPARgamma LBD (unknown origin) by isothermal titration calorimetry
Exercise: for every item that follows, state its recorded Kd.
Give a bare numeral; the unit nM is implied.

Please look at this compound and report its Kd: N[C@@H](Cc1cc(I)c(Oc2cc(I)c(O)c(I)c2)c(I)c1)C(=O)O
400

Please look at this compound and report its Kd: O=C(O)Cc1cc(I)c(Oc2cc(I)c(O)c(I)c2)c(I)c1
110

Please look at this compound and report its Kd: N[C@@H](Cc1cc(I)c(Oc2ccc(O)c(I)c2)c(I)c1)C(=O)O
710

Please look at this compound and report its Kd: N[C@@H](Cc1ccc(Oc2cc(I)c(O)c(I)c2)c(I)c1)C(=O)O
630

###

test system: Retinoic acid receptor RXR-alpha (Homo sapiens, UniProt P19793)
Sequence (P19793 whole entry, the tested form may be a part): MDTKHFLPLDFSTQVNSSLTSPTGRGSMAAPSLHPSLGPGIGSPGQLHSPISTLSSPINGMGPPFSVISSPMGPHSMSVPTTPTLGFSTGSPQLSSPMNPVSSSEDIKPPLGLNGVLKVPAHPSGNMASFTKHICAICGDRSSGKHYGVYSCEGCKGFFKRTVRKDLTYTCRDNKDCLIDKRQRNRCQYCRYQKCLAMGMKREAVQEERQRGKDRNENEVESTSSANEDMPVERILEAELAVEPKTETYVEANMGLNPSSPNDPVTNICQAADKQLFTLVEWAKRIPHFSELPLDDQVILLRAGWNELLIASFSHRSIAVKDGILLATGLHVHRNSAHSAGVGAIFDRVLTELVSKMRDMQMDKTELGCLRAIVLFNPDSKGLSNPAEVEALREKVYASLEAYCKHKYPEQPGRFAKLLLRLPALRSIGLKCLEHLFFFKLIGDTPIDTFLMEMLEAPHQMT
assay summary: Binding affinity to RXRalpha LBD (unknown origin) by isothermal titration calorimetry
property name: pKd
The read-out pKd is expressed as -log10 of concentration in moles per litre.

Please look at this compound and report its pKd: O=C(O)Cc1cc(I)c(Oc2cc(I)c(O)c(I)c2)c(I)c1 [TETRAC]
5.82

###

Exercise: for every item that follows, state its recorded Cmax.
assay summary: Cmax in RjOrl:Swiss CD-1 mouse at 10 mg/kg, po administered as single dose measured after 1 to 24 hrs by LC-MS analysis
Type: ADME, organism-based
Design: dose 10 mg/kg, route oral
condition context: in vivo
Give a bare numeral; the unit ng/mL is implied.

Please look at this molecule and report its Cmax: N[C@@H](Cc1cc(Br)c(Oc2cc(I)c(O)c(I)c2)c(I)c1)C(=O)O
4480

Please look at this molecule and report its Cmax: O=C(O)Cc1cc(Br)c(Oc2cc(I)c(O)c(I)c2)c(I)c1
3180
